Kindly supply the reported EC50 values for the records listed here.
Molecular target: human IL-17AA (Homo sapiens)
Test: IL-8 release assay in human epithelial keratinocytes adult (HEKa)
Conditions: 3 ng/ml human IL-17AA + 10 ng/ml human TNFalpha, 68-72 h, IL-8 by HTRF, read-out: Rel EC50 L-8 release assay
Method: Example: IL-8 release assay in human epithelial keratinocytes adult (HEKa) Keratinocytes were seeded at 3500 cells/well in 384-well ViewPlates (Perkin Elmer) in Epilife medium (Thermo Fisher) containing human keratinocyte growth supplement (HKGS) without hydrocortisone and incubated in a humid incubator at 37° C., 5% CO2, overnight. […] for test compounds, by the use of acoustic pipetting. […] Cytotoxicity was measured in the cell-containing […]

Data request: Query (molecule): Cn1cncc1-c1ccc(NC(=O)C(Cc2cc(-c3ccnc(OC(F)F)c3)ccc2Cl)NC(=O)c2ccnn2C)cc1 (stereo not drawn) [Example 161] ; field requested: EC50
Data returned: 100 to 1000 nM

Data request: Query (molecule): Cc1cnn(C)c1-c1ccc(NC(=O)[C@H](Cc2cc(-c3ccc(=O)n(C(C)C)c3)ccc2Cl)NC(=O)C(C)C)cc1 [Example 328] ; field requested: EC50
Data returned: > 1000 nM

Data request: Query (molecule): Cc1n[nH]c(C)c1-c1ccc(NC(=O)[C@@H](NC(=O)C2(F)CC2)[C@@H]2CCCc3ccc(-c4cc(N5C[C@@H]6C[C@H]5CO6)ncn4)cc32)cc1 [Example 397] ; field requested: EC50
Data returned: < 100 nM

* * *

Biological target: human IL-17AA (Homo sapiens, UniProt Q16552)
Sequence (Q16552 24-155): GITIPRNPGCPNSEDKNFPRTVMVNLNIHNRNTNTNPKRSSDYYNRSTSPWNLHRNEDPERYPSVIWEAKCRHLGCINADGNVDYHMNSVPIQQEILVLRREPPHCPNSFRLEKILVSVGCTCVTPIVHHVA
Sequence (Q16552 24-155): as above
Test: IL-8 release assay in human epithelial keratinocytes adult (HEKa)
Conditions: 3 ng/ml human IL-17AA + 10 ng/ml human TNFalpha, 68-72 h, IL-8 by HTRF, read-out: Rel EC50 L-8 release assay
pEC50: −log10 of the molar value.
Kindly supply the reported pEC50 values for the records listed here.

Data request: Query (molecule): CN(C)c1cc(-c2ccc(Cl)c(CC(NC(=O)c3ccnn3C)C(=O)Nc3ccc(-c4cncn4C)cc3)c2)ccn1 (centres unmarked) [Example 162] ; field requested: pEC50
Data returned: 6.00 to 7.00

Data request: Query (molecule): Cc1n[nH]cc1-c1ccc(NC(=O)[C@H](Cc2cc(-c3ccc(=O)n(C(C)C)c3)ccc2Cl)NC(=O)C2(F)CC2)cc1 [Example 136] ; field requested: pEC50
Data returned: 6.00 to 7.00

Data request: Query (molecule): Cc1nncn1-c1ccc(NC(=O)C(Cc2cc(-c3ccc(=O)n(C(C)C)c3)ccc2Cl)NC(=O)c2ccnn2C)cc1 (centres unmarked) [Example 77] ; field requested: pEC50
Data returned: < 6.00

Data request: Query (molecule): CC(C)n1cc(-c2ccc(Cl)c(C[C@H](NC(=O)C3(F)CC3)C(=O)Nc3ccc(-c4nncn4C)cc3)c2)ccc1=O [Example 92] ; field requested: pEC50
Data returned: < 6.00

Data request: Query (molecule): Cn1cncc1-c1ccc(NC(=O)C(Cc2cc(-c3ccnc(N4CC[C@@H](CO)C4)c3)ccc2Cl)NC(=O)c2ccnn2C)cc1 (some centres unmarked) [Example 186] ; field requested: pEC50
Data returned: 6.00 to 7.00

Data request: Query (molecule): Cc1[nH]ncc1-c1ccc(NC(=O)C(Cc2cc(-c3ccc(=O)n(C(C)C)c3)ccc2Cl)NC(=O)OC(C)(C)C)cc1 (centres unmarked) [Example 90] ; field requested: pEC50
Data returned: 6.00 to 7.00

Data request: Query (molecule): CCc1cc(-c2ccc(Cl)c(CC(NC(=O)c3ccnn3C)C(=O)Nc3ccc(-c4nncn4C)cc3)c2)ccc1C#N (centres unmarked) [Example 198] ; field requested: pEC50
Data returned: < 6.00

Data request: Query (molecule): Cc1ncn(C)c1-c1ccc(NC(=O)[C@@H](NC(=O)C2(F)CC2)[C@@H]2CCCc3ccc(-c4ccnc(N5C[C@@H]6C[C@H]5CN6)c4)cc32)cc1 [Example 40] ; field requested: pEC50
Data returned: > 7.00

Data request: Query (molecule): Cc1n[nH]c(C)c1-c1ccc(NC(=O)[C@@H](NC(=O)c2ccnn2C)[C@@H]2CCc3ccc(-c4ccnc(C(C)(C)O)c4)cc32)cc1 [Example 16] ; field requested: pEC50
Data returned: > 7.00

Data request: Query (molecule): CC(C)n1cc(-c2ccc(Cl)c(CC(NC(=O)c3ccnn3C)C(=O)Nc3ccc(-c4c[nH]nc4C(F)(F)F)cc3)c2)ccc1=O (centres unmarked) [Example 121] ; field requested: pEC50
Data returned: 6.00 to 7.00

Data request: Query (molecule): CC(c1cccc(-c2ccc(=O)n(C(C)C)c2)c1)[C@H](NC(=O)c1ccnn1C)C(=O)Nc1ccc(-c2cncn2C)cc1 (some centres unmarked) [Example 56] ; field requested: pEC50
Data returned: < 6.00
